Ref: patent US10633397B2

# Tested On: CYP2C19 (Homo sapiens)
# Sequence (P33261 whole entry): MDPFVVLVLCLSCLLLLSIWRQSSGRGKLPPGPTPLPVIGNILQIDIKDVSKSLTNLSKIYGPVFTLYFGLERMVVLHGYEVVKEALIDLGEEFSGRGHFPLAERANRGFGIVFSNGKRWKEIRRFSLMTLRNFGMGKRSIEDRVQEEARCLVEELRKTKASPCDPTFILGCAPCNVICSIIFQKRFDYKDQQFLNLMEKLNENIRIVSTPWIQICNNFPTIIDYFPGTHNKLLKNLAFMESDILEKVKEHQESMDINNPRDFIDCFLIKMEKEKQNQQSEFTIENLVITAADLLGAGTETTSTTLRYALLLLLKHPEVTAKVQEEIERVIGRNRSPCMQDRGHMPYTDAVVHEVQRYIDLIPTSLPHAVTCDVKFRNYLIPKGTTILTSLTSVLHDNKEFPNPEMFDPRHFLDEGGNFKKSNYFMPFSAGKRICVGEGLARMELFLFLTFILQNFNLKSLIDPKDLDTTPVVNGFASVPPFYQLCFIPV
pIC50: −log10 of the molar value.
Assay Metric: pIC50

pIC50 reading for O=C1c2c(O)c(=O)ccn2N([C@@H]2c3ccccc3SCc3c2ccc(F)c3F)[C@@H]2COCCN12 [III-2] : < 4.70

----------
# Tested On: cap-dependent endonuclease (RNP fraction, PB1-PB2-PA complex) (Influenza A virus, UniProt P15659)
# Procedure Summary: Measurement of cap-dependant endonuclease (CEN) inhibitory activity
# Format: biochemical
# Experimental Setup: RNP from A/WSN/33 virus, room temperature 60 minutes; read-out: CEN_IC50
In plain terms, low IC50, meaning strictly below 4 nM, gives TRUE, and everything else gives FALSE.

Structure Notation	Assigned Category
O=C1c2c(O)c(=O)ccn2N([C@@H]2c3ccccc3SCc3c2ccc(F)c3F)[C@@H]2CO[C@H](C(F)(F)F)CN12	FALSE

Problem: For the compound O=C1c2c(O)c(=O)ccn2N([C@@H]2c3ccccc3SCc3c2ccc(F)c3F)[C@@H]2CCC(F)(F)CN12 , is IC50 under 4 nM?
FALSE

Problem: For the compound CC1(C)CCN2C(=O)c3c(O)c(=O)ccn3N([C@H]3c4ccc(F)cc4CSc4ccccc43)[C@@H]2C1 , is IC50 under 4 nM?
TRUE

Problem: For the compound C[C@@H]1COC[C@@H]2N1C(=O)c1c(O)c(=O)ccn1N2[C@@H]1c2ccccc2SCc2c1ccc(F)c2F , is IC50 under 4 nM?
TRUE

Problem: For the compound O=C1c2c(O)c(=O)ccn2N([C@@H]2c3ccccc3SCc3c(F)cc(F)cc32)[C@@H]2COCCN12 , is IC50 under 4 nM?
FALSE
